- System: P388 leukemia ip, CD2F1 mice, survival T/C
- Experiment description: NCI In Vivo Anticancer Drug Screen. Data for tumor model P388 Leukemia (intraperitoneal) in CD2F1 (CDF1) mice
- Reported conditions: endpoint: median survival time; dose: 400.0 mg/kg/injection; schedule: Q04DX002 (ip); vehicle: saline with Tween-80; higher = longer survival
- Method: The antitumor activity of compounds was measured in mice bearing transplantable tumors. Survival or tumor size were measured and the results are expressed as the measurement made in the treated group (T) divided by the measurement made in the vehicle treated control group (C). The tumor model used in this assay is P388 Leukemia (intraperitoneal) in CD2F1 (CDF1) mice
Toxic doses and inconclusive results are not listed.

{"Compound": "c1ccc2c(c1)CC/C2=N\\OCC1CO1 (stereo unspecified)", "Target or test system": "P388 leukemia ip, CD2F1 mice, survival T/C", "T/C": "106 % of control"}
{"Compound": "CSC(=S)N/N=C\\c1c(CO)cnc(C)c1O", "Target or test system": "P388 leukemia ip, CD2F1 mice, survival T/C", "T/C": "113 % of control"}
{"Compound": "CC(COC(=O)c1cccc([N+](=O)[O-])c1C(=O)O)c1ccccc1 (stereo unspecified)", "Target or test system": "P388 leukemia ip, CD2F1 mice, survival T/C", "T/C": "110 % of control"}
{"Compound": "c1ccc2cc3cc(N=Nc4ccc5cc6ccccc6cc5c4)ccc3cc2c1", "Target or test system": "P388 leukemia ip, CD2F1 mice, survival T/C", "T/C": "106 % of control"}
{"Compound": "CCN(CC)c1nc(NNC(=S)NC)nc(N(CC)CC)n1", "Target or test system": "P388 leukemia ip, CD2F1 mice, survival T/C", "T/C": "100 % of control"}
{"Compound": "Cc1csc(NC(=S)N(C)C)n1", "Target or test system": "P388 leukemia ip, CD2F1 mice, survival T/C", "T/C": "101 % of control"}

###

- Tested on: P388 leukemia ip, CD2F1 mice, survival T/C
- Experiment description: NCI In Vivo Anticancer Drug Screen. Data for tumor model P388 Leukemia (intraperitoneal) in CD2F1 (CDF1) mice
- Reported conditions: endpoint: median survival time; dose: 200.0 mg/kg/injection; schedule: Q01DX009 (ip); vehicle: suspension in saline; higher = longer survival
Toxic doses and inconclusive results are not listed.
Entries annotated with measured T/C
Outcome measure: T/C

{"Molecule": "O=C1CCSC(=S)N1c1ccccc1C(F)(F)F", "Outcome measure": "T/C", "Measured result": "99 % of control"}
{"Molecule": "O=[N+]([O-])C(CO)C(CO)[N+](=O)[O-] (stereo unspecified)", "Outcome measure": "T/C", "Measured result": "100 % of control"}
{"Molecule": "O=[N+]([O-])c1ccc(NN=C(CO)CO)c([N+](=O)[O-])c1", "Outcome measure": "T/C", "Measured result": "97 % of control"}
{"Molecule": "CCOC(=O)C1=C(C#N)C(C(=O)OCC)c2ncccc21 (stereo unspecified)", "Outcome measure": "T/C", "Measured result": "92 % of control"}
{"Molecule": "Cc1ccc(N2C(=O)CCSC2=S)cc1C", "Outcome measure": "T/C", "Measured result": "99 % of control"}
{"Molecule": "NC(Cc1ccccc1)P(=O)(O)O (stereo unspecified)", "Outcome measure": "T/C", "Measured result": "97 % of control"}

###

- Tested on: P388 leukemia ip, CD2F1 mice, survival T/C
- Experiment description: NCI In Vivo Anticancer Drug Screen. Data for tumor model P388 Leukemia (intraperitoneal) in CD2F1 (CDF1) mice
- Reported conditions: endpoint: median survival time; dose: 50.0 mg/kg/injection; schedule: Q01DX009 (ip); vehicle: water; higher = longer survival
Toxic doses and inconclusive results are not listed. Peptide text beside a SMILES is read from it.

{"Compound": "COC(=O)/C=C/CNC(C)C", "T/C": "99 % of control"}
{"Compound": "O=c1ccn(C2OC(CO)C(O)C2O)c(=O)[nH]1 (stereo unspecified)", "T/C": "100 % of control"}
{"Compound": "O=NN(CCSCCO)C(=O)NC1CCCCC1", "T/C": "109 % of control"}
{"Compound": "CC(C)C(NC(=O)C(CCCN=C(N)N)NC(=O)C(N)CCCCN)C(N)=O (stereo not drawn) (H-Lys-Arg-Val-NH2; configuration not given here)", "T/C": "99 % of control"}
{"Compound": "CC(N)C(O)C(C)C(=O)O (stereo unspecified)", "T/C": "107 % of control"}
{"Compound": "NC(CCS(=O)(=O)NO)C(=O)O (stereo unspecified)", "T/C": "90 % of control"}

###

- System: P388 leukemia ip, CD2F1 mice, survival T/C
- Experiment description: NCI In Vivo Anticancer Drug Screen. Data for tumor model P388 Leukemia (intraperitoneal) in CD2F1 (CDF1) mice
- Reported conditions: endpoint: median survival time; dose: 50.0 mg/kg/injection; schedule: Q01DX009 (ip); vehicle: Klucel (hydroxypropylcellulose) (HPC); higher = longer survival
Toxic doses and inconclusive results are not listed.
Here the recorded T/C is given for each entry.

{"Compound": "C=C1C(=O)OC2CC1C(OC(=O)/C=C/c1ccccc1)C/C(C)=C/CC/C(C)=C/CCC2(C)O (stereo unspecified)", "Target or test system": "P388 leukemia ip, CD2F1 mice, survival T/C", "T/C": "118 % of control"}
{"Compound": "C=C1C(=O)OC2C=C(CCC(C)=O)C(C)C(OC(C)=O)CC12 (stereo unspecified)", "Target or test system": "P388 leukemia ip, CD2F1 mice, survival T/C", "T/C": "102 % of control"}
{"Compound": "CCCCCCC(=O)C(=O)c1ccc(O)cc1O", "Target or test system": "P388 leukemia ip, CD2F1 mice, survival T/C", "T/C": "113 % of control"}
{"Compound": "CC1=NC(C#N)=C(C#N)N=C(C)C1", "Target or test system": "P388 leukemia ip, CD2F1 mice, survival T/C", "T/C": "93 % of control"}
{"Compound": "O=C1CCS(=O)(=O)C(=O)N1c1ccccc1", "Target or test system": "P388 leukemia ip, CD2F1 mice, survival T/C", "T/C": "100 % of control"}
{"Compound": "O=[N+]([O-])c1ccc(SC(=S)N2CCCCC2)c([N+](=O)[O-])c1", "Target or test system": "P388 leukemia ip, CD2F1 mice, survival T/C", "T/C": "105 % of control"}
{"Compound": "Brc1ccc(Oc2ccc(Br)cc2)cc1", "Target or test system": "P388 leukemia ip, CD2F1 mice, survival T/C", "T/C": "100 % of control"}
{"Compound": "COc1cc2c(cc1O)C(=O)CCC2", "Target or test system": "P388 leukemia ip, CD2F1 mice, survival T/C", "T/C": "102 % of control"}
{"Compound": "CCCCCCC(=O)Nc1ncc([N+](=O)[O-])s1", "Target or test system": "P388 leukemia ip, CD2F1 mice, survival T/C", "T/C": "106 % of control"}
{"Compound": "CC(=O)Oc1cc2c(c(OC(C)=O)n1)C(C)N(Cc1ccccc1)C2=O (stereo unspecified)", "Target or test system": "P388 leukemia ip, CD2F1 mice, survival T/C", "T/C": "106 % of control"}
{"Compound": "COC(=O)c1ccccc1NC(CCN1CCN(CCC(=NC(C)(C)C)Nc2ccccc2C(=O)OC)CC1)=NC(C)(C)C", "Target or test system": "P388 leukemia ip, CD2F1 mice, survival T/C", "T/C": "93 % of control"}

###

Listed here: items and their measured T/C.
- Test system: P388 leukemia ip, CD2F1 mice, survival T/C
- Experiment description: NCI In Vivo Anticancer Drug Screen. Data for tumor model P388 Leukemia (intraperitoneal) in CD2F1 (CDF1) mice
- Reported conditions: endpoint: median survival time; dose: 60.0 mg/kg/injection; schedule: Q01DX005 (ip); vehicle: saline; higher = longer survival
Toxic doses and inconclusive results are not listed.

{"Molecule": "CC(C)CC1N=C(N(C)N=O)OP1(=O)NNc1ncccn1 (stereo not drawn)", "T/C": "97 % of control"}
{"Molecule": "COC(=O)C1=CO[C@@H](O)[C@@H]2C(C)OC(=O)C[C@H]12 (stereo partly drawn)", "T/C": "104 % of control"}
{"Molecule": "CC1C(O)=C(c2ccccc2)P(=O)(Cc2ccccc2)C1C (stereo not drawn)", "T/C": "101 % of control"}
{"Molecule": "CN(C)CCC(=O)C(=Cc1cccs1)C(=O)CCN(C)C", "T/C": "101 % of control"}
{"Molecule": "CCOC(=O)CC1NC(=O)CNC1=O (stereo not drawn)", "T/C": "100 % of control"}
{"Molecule": "CSc1nc2c(nnn2C2OC(CO)C(O)C(O)C2O)c(=O)n1C (stereo not drawn)", "T/C": "97 % of control"}
{"Molecule": "OC1(C2=COCCO2)CCCCC1", "T/C": "105 % of control"}
{"Molecule": "COc1nc2c(=O)[nH]cnc2n1C1OC(CO)C(O)C1O (stereo not drawn)", "T/C": "104 % of control"}
{"Molecule": "O/N=C/c1ccccn1", "T/C": "92 % of control"}
{"Molecule": "OC12CC3C4CC(O1)C1C4CC3C12 (stereo not drawn)", "T/C": "102 % of control"}
{"Molecule": "COC(=O)CCc1c(C)nc(N(C)C)oc1=O", "T/C": "100 % of control"}
{"Molecule": "COc1ccc(C(F)C(N)C#N)cc1 (stereo not drawn)", "T/C": "109 % of control"}
{"Molecule": "N[C@H]1CCC[C@@H](O)C1O (stereo partly drawn)", "T/C": "103 % of control"}
{"Molecule": "COc1nc(NC2OCC(O)C(O)C2O)c(C=O)c(=O)n1C (stereo not drawn)", "T/C": "100 % of control"}
{"Molecule": "CC1CC(C)N(C)C(C)C1 (stereo not drawn)", "T/C": "104 % of control"}
{"Molecule": "CCOC(=O)C1CN2C(=O)CCC2C1=O (stereo not drawn)", "T/C": "104 % of control"}
{"Molecule": "COc1cccc(C(c2cc3c(cc2O)OCO3)N2CCN(C(c3cc4c(cc3O)OCO4)c3cccc(OC)c3O)CC2)c1O (stereo not drawn)", "T/C": "98 % of control"}
{"Molecule": "CN(C)c1ccc2nc3ccc(=N)cc-3sc2c1", "T/C": "114 % of control"}
